Origin of the recorded values: patent US20250154126A1

assay: Long-term/accelerated stability of crystal forms (25° C. 60% RH and 40° C. 75% RH); assay type: physicochemical; details: 25° C., 60% RH, 3 months

[
  {
    "COMPOUND": "N#Cc1ccc(N2CCC(Sc3ccc(COc4cccc5c4CN([C@H]4CCC(=O)NC4=O)C5=O)cn3)CC2)c(F)c1 [Crystal form E]",
    "Purity % 3 months": "97.8%"
  },
  {
    "COMPOUND": "N#Cc1ccc(N2CCC(Sc3ccc(COc4cccc5c4CN([C@H]4CCC(=O)NC4=O)C5=O)cn3)CC2)c(F)c1 [Crystal form Q]",
    "Purity % 3 months": "99.5%"
  },
  {
    "COMPOUND": "N#Cc1ccc(N2CCC(Sc3ccc(COc4cccc5c4CN([C@H]4CCC(=O)NC4=O)C5=O)cn3)CC2)c(F)c1 [Crystal form D]",
    "Purity % 3 months": "97.8%"
  },
  {
    "COMPOUND": "N#Cc1ccc(N2CCC(Sc3ccc(COc4cccc5c4CN([C@H]4CCC(=O)NC4=O)C5=O)cn3)CC2)c(F)c1 [Crystal form U]",
    "Purity % 3 months": "99.6%"
  }
]
